Test: qHTS Assay for Inhibitors of Hepatitis C Virus (HCV)
Details: Huh7.5.1 HCVcc-Cre infection, luciferase reporter, 44 h; series mostly up to 41.8 µM
Hit rate of the full screen: of about 340,000 compounds, about 12,000 (3.5%) were called active. Not shown: some 18% with an inconclusive outcome. The call rests on the fitted dose curve; in most records, active means well fitted inhibition curve with a large enough effect; inconclusive means small, poorly fitted or top-dose-only effect, or another doubt; inactive means no such curve, though single readings can be large or run the other way. Only a selection was taken, and actives are over-represented in it overall.
Outcomes: T for active, F for inactive

{"columns": ["compound", "assigned category"],
 "data": [
  ["N=C1c2ccccc2-c2ccccc21", "F"],
  ["Cc1nn(Cc2ccccc2)c(C)c1C(=O)N1CCN(CC(=O)Nc2ccccc2Cl)CC1", "F"],
  ["Cc1cc2nc(-c3ccc(NC(=O)c4cccnc4)cc3)oc2cc1C", "F"],
  ["Cc1noc(C)c1NC(=O)Nc1cccc2c1O[C@H](CN(C)C(=O)Nc1ccccc1)[C@@H](C)CN([C@H](C)CO)C2=O", "F"],
  ["CC1CCN(Cc2nc(-c3ccc(Cl)cc3)no2)CC1", "F"],
  ["COC(=O)CNc1nc(Cl)nc(N2CCC(C)CC2)n1", "F"],
  ["N#Cc1ccc(CN2CCN(CC(=O)Nc3ccccc3C(=O)NC3CC3)CC2)cc1", "F"],
  ["OCC(O)C1OCOC(C(O)CO)C1O (configuration not stated)", "F"],
  ["COc1ccc(-n2nc(C(=O)NCC(=O)N3CCN(c4ccccc4OC)CC3)c3ccccc3c2=O)c(OC)c1", "F"],
  ["CN(Cc1ccccn1)Cc1nc(-c2ccc(Cl)cc2)no1", "F"],
  ["O=C(CN1CCN(S(=O)(=O)c2ccc(Cl)s2)CC1)N1CCCCC1", "F"],
  ["CC(=O)c1c(C)[nH]c(C(=O)N2CCN(S(=O)(=O)c3ccc(F)c(F)c3)CC2)c1C", "F"],
  ["O=C(COC(=O)c1ncc(Cl)c(Cl)c1Cl)NCc1ccccc1", "F"],
  ["O=C(CSc1nnc(CN2CCCC2)n1-c1ccc(F)cc1)c1ccc2c(c1)OCO2", "F"],
  ["Cc1noc(C)c1NC(=O)Nc1ccc2c(c1)C(=O)N([C@H](C)CO)C[C@H](C)[C@@H](CN(C)C(=O)Nc1ccccc1)O2", "F"],
  ["CC(NC(=O)c1ccccc1)C(=O)Nc1ccccc1 (configuration not stated)", "F"],
  ["CC(=O)Nc1ccc(-c2nc3ccccc3o2)cc1", "F"],
  ["CSCc1cc(N(C)C)nc(SCc2ccc(Cl)cc2Cl)n1", "T"],
  ["COc1ccc(CCNC(=O)COC(=O)c2ncc(Cl)c(Cl)c2Cl)cc1OC", "F"],
  ["COc1ccc(NC(=O)CN(C)C(=O)CC2CCCCC2)cc1", "F"],
  ["CC(OC(=O)c1ccccc1NCCO)C(=O)Nc1ccnn1C(C)C (configuration not stated)", "F"],
  ["COc1ccc2oc(C(=O)N(CC(C)C)C3CCS(=O)(=O)C3)c(C)c2c1 (configuration not stated)", "F"]
]}

* * *

Experiment: qHTS Assay for Inhibitors of Hepatitis C Virus (HCV)
Details: Huh7.5.1 HCVcc-Cre infection, luciferase reporter, 44 h; series mostly up to 41.8 µM
Hit rate of the full screen: of about 340,000 compounds, about 12,000 (3.5%) were called active. About 18% were inconclusive and are not listed. Calls follow the shape of the dose curve; as a rule, active = well fitted inhibition curve with a large enough effect; inconclusive = small, poorly fitted or top-dose-only effect, or another doubt; inactive = no such curve, though single readings can be large or run the other way. This excerpt belongs to a sample that is enriched for actives.
Outcomes: active, inactive

{"columns": ["compound", "assigned category"],
 "data": [
  ["Cc1cccc(N2CCN(C(=O)c3cccc(S(=O)(=O)N4CCc5ccccc5C4)c3)CC2C)c1 (configuration not stated)", "active"],
  ["COc1ccc(CCNC(=O)COC(=O)c2cc(=O)c3ccccc3o2)cc1", "inactive"],
  ["CCCc1nc2ccccc2c(C(=O)OCc2nnc(-c3cc(OC)c(OC)c(OC)c3)o2)c1CC", "active"],
  ["Cc1nc2sc3c(c2c(=O)n1NC(=O)CCl)CCCC3", "inactive"],
  ["Clc1cccc(-c2nc(NCC3CCCO3)c3ccccc3n2)c1 (configuration not stated)", "inactive"],
  ["COc1ccccc1CNC(=O)CCCN1C(=O)NC2(CCCC2)C1=O", "inactive"],
  ["COc1ccc(Nc2cc(Cl)ccc2C(=O)O)cn1", "inactive"],
  ["CCOC(=O)N1CCN(Cc2nc3cc(NC(C)=O)ccc3n2C)CC1", "inactive"],
  ["O=C(Nc1ccccc1C(=O)NCC1CCCO1)c1ccccc1F (configuration not stated)", "inactive"],
  ["O=C(CSc1nc2cc3c(cc2c(=O)n1CCC1=CCCCC1)OCO3)NCc1ccco1", "inactive"],
  ["COc1cccc(NC(=S)N(CCc2c(C)[nH]c3ccccc23)Cc2ccco2)c1", "active"],
  ["O=C(Nc1cccc(S(=O)(=O)NC2=NCCC2)c1)c1ccc(F)cc1F", "inactive"],
  ["Cc1cccn2c(=O)c3cc(C#N)c(=NC(=O)c4cccnc4)n(CC4CCCO4)c3nc12 (configuration not stated)", "inactive"],
  ["FC(F)(F)c1cccc(Nc2ncnc3ccccc23)c1", "inactive"],
  ["CC(NC(=O)c1cccc(S(=O)(=O)N2CCc3ccccc3C2)c1)c1ccco1 (configuration not stated)", "inactive"],
  ["CN1CCN(S(=O)(=O)c2cccc(C(=O)N3CCc4ccccc43)c2)CC1", "inactive"],
  ["Cc1cccc(NC(=S)N(CCN(C)C)C(C)c2ccco2)c1 (configuration not stated)", "inactive"],
  ["Cc1nc(-c2ccc(F)cc2)c(CC(=O)Nc2cccc(S(=O)(=O)N3CCOCC3)c2)s1", "inactive"],
  ["Cc1cccc(C(=O)OCC(=O)NC(C)C2CC3CCC2C3)c1O (configuration not stated)", "inactive"],
  ["CCCc1nc2ccccc2c(C(=O)OCC(=O)c2ccc3c(c2)NC(=O)CO3)c1CC", "inactive"],
  ["COc1cccc(NC(=S)NCc2ccco2)c1", "inactive"],
  ["OC(Cn1c2ccccc2c2ccccc21)C[n+]1ccccc1 (configuration not stated)", "inactive"]
]}
